Test system: T1, MICA*007 expressed at the cell surface (human, UniProt Q29983 24-297)
T1 construct: also called C1R-MICA*007; C1R-MICA*07
T1 chain: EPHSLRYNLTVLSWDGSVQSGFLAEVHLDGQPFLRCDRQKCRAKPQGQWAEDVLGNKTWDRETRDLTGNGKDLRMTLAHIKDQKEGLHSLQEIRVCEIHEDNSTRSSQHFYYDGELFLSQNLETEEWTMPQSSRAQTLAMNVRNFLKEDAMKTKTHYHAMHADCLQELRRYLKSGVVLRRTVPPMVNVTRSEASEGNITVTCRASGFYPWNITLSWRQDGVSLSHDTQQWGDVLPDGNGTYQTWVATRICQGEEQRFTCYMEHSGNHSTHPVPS
Method notes: flow cytometry on C1R transfectant cells, 4-parameter logistic fit
Endpoint label: EC50 (µg/mL)
Quick reminder: number only, in µg/mL, skip the unit.

Record excerpt, results attached:
CHG1-M-MIA-10F3 (antibody, human IgG1, V domains shown, the VH entry ends with ASTK) VH: QVQLQQSAAELARPGASVKMSCKASGYTFTSYTMHWVKQRPGQGLEWIGYINPSSGYTEYNQKFKDKTTLTVDKSSTTSYMQLSSLTSDNSAVYYCARGGDWDVDWFVYWGQGTLVTVSA VL: QIVLTQSPAIMSASPGEKVTITCSASSSISYMHWFQQKPGTSPKLWIYSTSKLASGVPARFSGSGSGTSHSLTISRMEAEDAATYYCQHRSTYPFTFGSGTKLEIK    0.94
CHG1-M-MIA-18E8 (antibody, human IgG1, V domains shown, the VH entry ends with ASTK) VH: DVQLQESGPDLVNPSQSLSLICTVTGYSITSDYSWHWIRQFPGNKLEWMGNIHYSGRINYNPSLRSRISITRDTSKNQFFLQLISVTTEDTATYYCATRRTFGNFEDYWGQGTTLTVSS VL: QIVLSQSPATLSVSPGEKVTMTCRSSSSVNYMHWYQQKPGSSPKPWIYATSTLASGVPARFSGSGSGTSYSLTISRVEAEDAATYYCQQWSSNPLTFGAGTKLELK    0.3
CHG1-M-MIA-9C10 (antibody, human IgG1, V domains shown, also called chimeric anti-MICA 9C10) VH: QVQLQQPGAELVRPGTSVNLSCKASGYSFTRYWMNWVKQRPGQGLEWIGMIHPSDSETRLNQKFKDKATLTVDKSSSTAYMQLSSPTSEDSAVYYCGYGNFFYVMDYWGQGTSVTVSS VL: DILLTQSPAILSVSPGERVSFSCRASQSIGTSIHWYQQRTNGSPRLLIKFASESISGIPSRFSGSGSGTDFTLNINSVESEDIADYYCQQSNFWPFTFGSGTKLEVK    2.83
CHG1-M-MIA-12A10 (antibody, human IgG1, V domains shown, the VH entry ends with ASTK) VH: QVQLQQSGADLVRPGASVRLSCRASGYSFTNYWMNWVKQRPGQGLEWIGMIHPSDSETRLNQKFKDKATLTVDKSSNTAYMQLSSPTSEDSAIYYCARDDFFTMDYWGQGTSVTVSS VL: DILLTQSPAILSVSPGERVSFSCRASQNIVTSIHWYQQSTNGSPRLLIKYASESISGIPSRFSGSGSGTDFTLTINSVESEDVADYYCQQSNIWPLTFGAGTKLELK    1.43
CHG1-M-MIA-15F9 (antibody, human IgG1, V domains shown, the VH entry ends with ASTK) VH: DVQLQESGPDLVKPSQSLSLTCTVTGYSITSGYSWHWIRQFPGNKLEWMGFIHYSGSTDYNPSLKSRISLTRDTSKNQFFLQLNSVSTEDTATYYCAKDYGHWYFDVWGAGTTVTVSS VL: SIVMTQTPKFLLVSAGDRVTITCKASQSVSYDVAWYQQKPGQSPKLLIFYASNRYTGVPARFTGSGYGTDFTFTISTVQAEDLAVYFCQQDYSSLTFGAGTKLELK    1.81
CHG1-M-MIA-20C6 (antibody, V domains shown, also called chimeric anti-MICA 20C6) VH: QITLKESGPGILKPSQTLSLTCSFSGFSLSTSGMGVGWIRQPSGKGLEWLAHIWWDDDKYYNPSLKSQLTISKDTSRNQVFLRITSVDTADTATYYCARRTQGYFDYWGQGTTLTVSS VL: DIVMTQSPATLSVTPGDRVSLSCRASQSISDYLHWYQQKSHESPRLLIKYASQSISGIPSRFSGSGSGSDFTLSINSVEPEDVGVYYCQNGHSFPWTFGGGTKLEIKR    0.4

// switching to the query binder
State the recorded EC50 for this entry: CHG1-M-MIA-6E4 (antibody, V domains shown, also called chimeric anti-MICA 6E4) VH: EVQLVESGGALVKPGGSLKLSCAASGFTFSYYAMSWVRQTPEKRLEWVATISRGGNYIYYTDSVKGRFTISRDNAKNTLYLQMTSLRSEDTAMFYCASISDYDGAWLAYWGQGTTLTVSS VL: DVLMTQTPLSLPVSLGDQASISCRSSQSIIHTNGNTYLEWYLQKPGQSPKLLIYKISNRFSGVPDRFSGSGSGTDFTLKISRVEAEDLGVYYCFQGSHVPWTFGGGTKLEIKR
1.23
